B1: RSPH3 (parent)
chain: LELQRQREARKRALARKQAQEQLR

# Variants of: B1
# procedure.details: protein stability index of a GFP-peptide fusion (GPS, HEK-293T) (PSI 1-6); higher = more stable;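 also: lentivirally expressed fusions sorted by FACS into six bins by GFP to DsRed ratio, PSI derived from sequencing read proportions per bin multiplied by bin number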
# experimental.context: c terminus: a fixed tail appended
value.kind: protein stability index
Give only the figure.

> print(dat)
   variant.string               value.kind  observed.value
1             A9C  protein stability index            4.05
2            A15H  protein stability index            3.96
3            L23F  protein stability index            3.96
4             Q6R  protein stability index            3.41
5            A19M  protein stability index            3.37

Req: Quick one: protein stability index of A15S ?
Resp: 4.04

Req: Quick one: protein stability index of L1D ?
Resp: 4.08

Req: Quick one: protein stability index of R16F ?
Resp: 3.43

Req: Quick one: protein stability index of R24M ?
Resp: 3.33

From: the supplement of paper PMC10567573
